Target: T1, His-tagged cynomolgous macaque BCMA (Acro Biosystems, BCA-C52H7) (cynomolgus macaque, UniProt Q02223 1-54 (human entry))
T1 construct: Bought protein; also called cyno BCMA; CyBCMA; not shown: His tag
Assay: ELISA, hybridoma supernatant, coated His-tagged antigen; also: test concentration or dose not given here
Form field: ELISA values (OD 450 nm) (one value per entry).

{"columns": ["binder", "ELISA values (OD 450 nm), OD"],
 "data": [
  ["552-LN1-F4 (antibody produced by the hybridoma) (antibody, V domains shown, Mouse antibody from B cell hybridoma (culture supernatant or IgG purified from it)) VH: QIQLVQSGPELKKPGETVKISCMASGYTFTDYSVRWVKQAPGKGLEWMGWINTETGEPTYAHDFKGRFAFSLETSASTAYLQINNLKDEDTSTYFCAISYYYALDYWGHGTSVTVSS VL: DIVLTQSPASLTVSLGQRATISCRASKSVSTSGYNFLHWYQQKPGQPPKLLIYLASNLESGAPARFSGSGSGTDFTLNIHPVEEEDAATYYCQHSRELPRTFGGGTKLEIK", 1.89],
  ["539-SP2-H3 (antibody produced by the hybridoma) (antibody, V domains shown, Mouse antibody from B cell hybridoma (culture supernatant or IgG purified from it)) VH: EVQLQQSGPELVKPGASVKMSCKASGYTFTSYVIHWVKQKPGQGLEWIGYVLPYNDVIKYNEKFKGKATLTSDKSSSTAYMDLSSLTSEDSAVYYCARWGDFDEGIWFPYWGQGTLVTVSA VL: DVLMTQTPLSLPVSLGDHASVSCRSSQSIVHTDGNTYLEWYLQKPGQSPKLLIYKVSNRFSGVPDRFSGSGSGTDFTLKISRVEAEDLGVYYCFQGSHVPWTFGGGTKLEIK", 0.669]
]}
